Listed molecules paired with reported IC50
target: PLK4 (Homo sapiens); assay: Activity (IC50) of the Table 1 compounds as PLK4 inhibitors; assay type: biochemical; details: Table 1, IC50 class
Sequence (O00444 whole entry): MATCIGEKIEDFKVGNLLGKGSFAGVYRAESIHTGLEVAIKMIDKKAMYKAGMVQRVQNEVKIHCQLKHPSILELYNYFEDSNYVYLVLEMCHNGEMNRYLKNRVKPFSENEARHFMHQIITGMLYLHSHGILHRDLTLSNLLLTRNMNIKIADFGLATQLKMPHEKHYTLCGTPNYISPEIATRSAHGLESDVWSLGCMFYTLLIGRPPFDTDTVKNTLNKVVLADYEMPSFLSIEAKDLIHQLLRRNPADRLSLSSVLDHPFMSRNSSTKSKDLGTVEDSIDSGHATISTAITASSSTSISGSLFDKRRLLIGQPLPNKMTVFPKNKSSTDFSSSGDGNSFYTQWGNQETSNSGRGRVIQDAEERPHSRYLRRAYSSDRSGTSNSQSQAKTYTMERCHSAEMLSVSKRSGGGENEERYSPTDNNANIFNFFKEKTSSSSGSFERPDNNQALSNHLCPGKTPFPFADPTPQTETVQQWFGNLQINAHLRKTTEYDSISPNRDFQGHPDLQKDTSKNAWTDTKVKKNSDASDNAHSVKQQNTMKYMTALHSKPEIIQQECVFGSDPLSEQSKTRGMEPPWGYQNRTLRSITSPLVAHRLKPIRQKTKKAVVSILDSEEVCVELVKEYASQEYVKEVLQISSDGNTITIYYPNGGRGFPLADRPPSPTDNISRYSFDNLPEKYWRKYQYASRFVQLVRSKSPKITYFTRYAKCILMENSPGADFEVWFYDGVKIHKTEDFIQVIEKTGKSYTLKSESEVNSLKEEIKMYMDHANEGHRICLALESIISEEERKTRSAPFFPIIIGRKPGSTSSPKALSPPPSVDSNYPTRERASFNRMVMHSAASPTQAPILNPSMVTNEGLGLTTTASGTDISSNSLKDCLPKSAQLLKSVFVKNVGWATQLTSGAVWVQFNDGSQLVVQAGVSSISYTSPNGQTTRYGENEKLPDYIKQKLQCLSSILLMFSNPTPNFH

Some entries whose results are on file:
molecule=COc1c(Nc2cc(C)[nH]n2)nc(Sc2ccc(S(=O)(=O)Cc3ccc([N+](=O)[O-])cc3)cc2)nc1N1CCN(CCN(C)C)CC1 target_desc="PLK4 (Homo sapiens)" result="< 0.1 µM"
molecule=COc1c(Nc2cc(C)[nH]n2)nc(Sc2ccc(NC(C)=O)cc2)nc1N1CCC(N)CC1 target_desc="PLK4 (Homo sapiens)" result="< 0.1 µM"
molecule=COc1c(Nc2cc(C)[nH]n2)nc(Sc2ccc(NC(=O)C3CC3)cc2)nc1N1CCN(CC2CC2)CC1 target_desc="PLK4 (Homo sapiens)" result="< 0.1 µM"

## Input Report measured IC50 on PLK4 (Homo sapiens); entry: COc1c(Nc2cc(C)[nH]n2)nc(Sc2ccc(S(=O)(=O)Cc3cccc(C#N)c3F)cc2F)nc1N1CCN(CCN(C)C)CC1
## Output < 0.1 µM

## Input Provide IC50, system PLK4 (Homo sapiens), entry COc1c(Nc2cc(C)[nH]n2)nc(Sc2ccc(S(=O)(=O)C(F)c3cccc([N+](=O)[O-])c3F)cc2F)nc1N1CCOC[C@@H]1CO (stereo partly shown)
## Output < 0.1 µM

## Input Would you please give the reported IC50 of COc1c(Nc2cc(C)[nH]n2)nc(Sc2ccc(NC(C)=O)cc2)nc1N1CC2CCC(C1)N2CCN1CCCCCCC1 with PLK4 (Homo sapiens)?
## Output < 0.1 µM

## Input GET IC50 | system: PLK4 (Homo sapiens) | item: COc1c(Nc2cc(C)[nH]n2)nc(Sc2ccc(S(=O)(=O)Cc3c(F)c(F)cc(F)c3F)cc2F)nc1N1CCOCC1
## Output < 0.1 µM

## Input For PLK4 (Homo sapiens), give the measured IC50 of the entry COCC(=O)N1CCN(c2nc(Sc3ccc(NC(=O)C4CC4)cc3)nc(Nc3cc(C)[nH]n3)c2OC)CC1
## Output < 0.1 µM

## Input Report measured IC50 on PLK4 (Homo sapiens); entry: CCS(=O)(=O)c1ccc(Sc2nc(Nc3cc(C)[nH]n3)c(OC)c(C3CCN(CCN(C)C)CC3)n2)cc1
## Output < 0.1 µM

## Input For PLK4 (Homo sapiens), give the measured IC50 of the entry COc1c(Nc2cc(C)[nH]n2)nc(Sc2ccc(NC(C)=O)cc2)nc1N1CCN(CCN(C)OC)CC1
## Output < 0.1 µM

## Input // fetch IC50; item: Cc1cc(Nc2nc(Sc3ccc(NC(=O)C4CCCC4)cc3)nc(N3CCNCC3)c2C)n[nH]1 ; system: PLK4 (Homo sapiens)
## Output < 0.1 µM

## Input Provide the reported IC50 (system: PLK4 (Homo sapiens)) for COc1c(Nc2cc(C)[nH]n2)nc(Sc2ccc(S(=O)(=O)Cc3ccccc3)cc2)nc1N1CCN(C2CCN(C)CC2)CC1
## Output < 0.1 µM

## Input Please look at COc1c(Nc2cc(C)[nH]n2)nc(Sc2ccc(S(=O)(=O)C(C)(C)c3cccc([N+](=O)[O-])c3F)cc2F)nc1N1CCC(CCN)CC1 and tell me its recorded IC50 on PLK4 (Homo sapiens).
## Output < 0.1 µM

## Input Specify the recorded IC50 for CC(=O)Nc1ccc(Sc2nc(Nc3cc(C)[nH]n3)c(C)c(N3CCN(C(=O)CCN(C)C)CC3)n2)cc1 , system: PLK4 (Homo sapiens).
## Output < 0.1 µM

## Input GET IC50 | system: PLK4 (Homo sapiens) | item: CSc1nc(Nc2cc(C)[nH]n2)c(Cl)c(N2CCCCC2)n1
## Output < 0.1 µM

## Input GET IC50 | system: PLK4 (Homo sapiens) | item: COc1c(Nc2cc(C)[nH]n2)nc(Sc2ccc(S(=O)(=O)Cc3ccccc3)cc2)nc1N1CCN(C)CC1
## Output < 0.1 µM

Cited source: patent US11612604B2
